target: TLR1/TLR2 (Mus musculus, UniProt Q9EPQ1+Q9QUN7); assay: TNF-α release from thioglycolate-elicited mouse peritoneal macrophages (ELISA); conditions: 4 h, read-out: Efficacy (magnitude) of response versus diprovocim-1 (100%), mouse macrophages
Sequence (Q9EPQ1 26-795): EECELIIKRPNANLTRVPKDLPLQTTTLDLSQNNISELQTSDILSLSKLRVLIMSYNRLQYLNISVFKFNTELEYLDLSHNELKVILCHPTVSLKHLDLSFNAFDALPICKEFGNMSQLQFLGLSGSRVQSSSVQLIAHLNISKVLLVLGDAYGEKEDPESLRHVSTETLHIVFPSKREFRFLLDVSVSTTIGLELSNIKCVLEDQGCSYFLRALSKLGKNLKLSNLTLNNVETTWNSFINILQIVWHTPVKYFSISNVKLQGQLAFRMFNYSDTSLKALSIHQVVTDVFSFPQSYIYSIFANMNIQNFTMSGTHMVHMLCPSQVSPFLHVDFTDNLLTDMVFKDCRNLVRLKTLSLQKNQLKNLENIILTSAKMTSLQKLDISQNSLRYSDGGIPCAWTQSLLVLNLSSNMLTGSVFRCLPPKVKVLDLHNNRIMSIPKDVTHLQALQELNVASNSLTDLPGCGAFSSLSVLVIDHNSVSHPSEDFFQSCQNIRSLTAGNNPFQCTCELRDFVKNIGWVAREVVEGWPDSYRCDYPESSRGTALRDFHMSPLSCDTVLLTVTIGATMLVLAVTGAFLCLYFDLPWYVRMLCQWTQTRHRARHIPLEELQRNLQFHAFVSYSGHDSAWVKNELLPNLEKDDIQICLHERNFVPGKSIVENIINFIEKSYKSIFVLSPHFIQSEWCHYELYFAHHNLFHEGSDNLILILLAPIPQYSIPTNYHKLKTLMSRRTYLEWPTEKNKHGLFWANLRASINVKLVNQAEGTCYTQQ
Sequence (Q9QUN7 25-784): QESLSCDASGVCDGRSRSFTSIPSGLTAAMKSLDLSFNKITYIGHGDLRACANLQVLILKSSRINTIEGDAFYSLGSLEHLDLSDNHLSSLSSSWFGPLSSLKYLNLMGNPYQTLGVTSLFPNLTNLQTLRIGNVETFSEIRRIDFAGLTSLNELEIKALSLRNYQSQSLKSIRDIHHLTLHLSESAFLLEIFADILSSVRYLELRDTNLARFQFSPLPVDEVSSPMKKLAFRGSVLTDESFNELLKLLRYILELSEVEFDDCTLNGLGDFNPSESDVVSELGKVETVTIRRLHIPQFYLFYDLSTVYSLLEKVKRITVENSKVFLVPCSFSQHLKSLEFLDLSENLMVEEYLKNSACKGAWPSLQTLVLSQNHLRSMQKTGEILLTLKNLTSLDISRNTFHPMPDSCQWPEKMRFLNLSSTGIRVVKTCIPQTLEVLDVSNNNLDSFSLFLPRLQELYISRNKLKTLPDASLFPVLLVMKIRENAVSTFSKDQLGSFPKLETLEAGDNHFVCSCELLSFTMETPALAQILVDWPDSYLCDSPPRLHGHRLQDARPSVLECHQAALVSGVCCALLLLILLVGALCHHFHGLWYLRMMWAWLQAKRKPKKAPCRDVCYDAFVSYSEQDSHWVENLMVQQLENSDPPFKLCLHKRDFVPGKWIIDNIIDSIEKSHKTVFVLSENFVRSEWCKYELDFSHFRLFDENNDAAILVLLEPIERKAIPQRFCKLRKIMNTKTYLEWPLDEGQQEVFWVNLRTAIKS
Known Emax of a selection of compounds
Value expressed in %; do not type the unit.

Worked examples follow.
| CHEM_SMILES | ASSAYED_SYSTEM | UNIT_SPEC | VALUE_REPORTED |
| --- | --- | --- | --- |
| CC(C)(C)OC(=O)N[C@@H](Cc1ccccc1)C(=O)OCCCCCCCCCCCCNC(=O)[C@@H]1CN(C(=O)c2ccc(C(=O)N3C[C@@H](C(=O)N[C@H]4C[C@@H]4c4ccccc4)[C@H](C(=O)N[C@H]4C[C@@H]4c4ccccc4)C3)cc2)C[C@H]1C(=O)N[C@H]1C[C@@H]1c1ccccc1 | TLR1/TLR2 (Mus musculus, UniProt Q9EPQ1+Q9QUN7) | % | 220 |
| O=C(COCc1ccccc1)OCCCCCCCCCCCCNC(=O)[C@@H]1CN(C(=O)c2ccc(C(=O)N3C[C@@H](C(=O)N[C@H]4C[C@@H]4c4ccccc4)[C@H](C(=O)N[C@H]4C[C@@H]4c4ccccc4)C3)cc2)C[C@H]1C(=O)N[C@H]1C[C@@H]1c1ccccc1 | TLR1/TLR2 (Mus musculus, UniProt Q9EPQ1+Q9QUN7) | % | 220 |
| O=C(CNC(=O)OCc1ccccc1)OCCCCCCCCCCCCNC(=O)[C@@H]1CN(C(=O)c2ccc(C(=O)N3C[C@@H](C(=O)N[C@H]4C[C@@H]4c4ccccc4)[C@H](C(=O)N[C@H]4C[C@@H]4c4ccccc4)C3)cc2)C[C@H]1C(=O)N[C@H]1C[C@@H]1c1ccccc1 | TLR1/TLR2 (Mus musculus, UniProt Q9EPQ1+Q9QUN7) | % | 410 |

Prompt: State its Emax on TLR1/TLR2 (Mus musculus, UniProt Q9EPQ1+Q9QUN7): CC(C)(C)OC(=O)/C=C/C(=O)NCC(=O)OCCCCCCCCCCCCNC(=O)[C@@H]1CN(C(=O)c2ccc(C(=O)N3C[C@@H](C(=O)N[C@H]4C[C@@H]4c4ccccc4)[C@H](C(=O)N[C@H]4C[C@@H]4c4ccccc4)C3)cc2)C[C@H]1C(=O)N[C@H]1C[C@@H]1c1ccccc1
Response: 110

###

biological target: TLR1/TLR2 (Homo sapiens, UniProt O60603+Q15399); assay: TNF-α release from PMA-differentiated human THP-1 cells (ELISA); settings: THP-1, 4 h, read-out: Efficacy (magnitude) of response versus diprovocim-1 (100%), THP-1;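 further: cells exposed to graded compound concentrations for 4 h, TNF-α quantified in supernatant, LPS as positive and DMSO as negative control, values are duplicate means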
Sequence (Q15399 25-786): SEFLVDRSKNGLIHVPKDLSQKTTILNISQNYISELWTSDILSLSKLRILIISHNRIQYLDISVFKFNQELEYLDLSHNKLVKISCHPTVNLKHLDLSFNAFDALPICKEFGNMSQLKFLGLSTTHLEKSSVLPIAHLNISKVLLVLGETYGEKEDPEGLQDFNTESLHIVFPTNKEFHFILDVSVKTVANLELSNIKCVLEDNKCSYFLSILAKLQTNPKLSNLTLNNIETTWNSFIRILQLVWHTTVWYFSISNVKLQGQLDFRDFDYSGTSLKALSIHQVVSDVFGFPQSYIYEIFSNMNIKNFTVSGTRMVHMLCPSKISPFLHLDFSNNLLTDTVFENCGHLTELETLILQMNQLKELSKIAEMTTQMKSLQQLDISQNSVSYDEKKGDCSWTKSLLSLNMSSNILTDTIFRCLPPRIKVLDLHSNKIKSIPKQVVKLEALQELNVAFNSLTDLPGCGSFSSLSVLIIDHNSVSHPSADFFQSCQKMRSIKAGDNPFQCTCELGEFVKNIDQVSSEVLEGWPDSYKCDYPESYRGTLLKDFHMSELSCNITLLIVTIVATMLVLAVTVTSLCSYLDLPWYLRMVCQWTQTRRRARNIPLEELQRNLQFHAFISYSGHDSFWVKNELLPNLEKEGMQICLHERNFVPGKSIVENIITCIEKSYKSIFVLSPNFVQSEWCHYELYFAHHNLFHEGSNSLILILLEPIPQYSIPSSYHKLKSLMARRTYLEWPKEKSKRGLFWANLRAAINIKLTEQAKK
Sequence (O60603 21-784): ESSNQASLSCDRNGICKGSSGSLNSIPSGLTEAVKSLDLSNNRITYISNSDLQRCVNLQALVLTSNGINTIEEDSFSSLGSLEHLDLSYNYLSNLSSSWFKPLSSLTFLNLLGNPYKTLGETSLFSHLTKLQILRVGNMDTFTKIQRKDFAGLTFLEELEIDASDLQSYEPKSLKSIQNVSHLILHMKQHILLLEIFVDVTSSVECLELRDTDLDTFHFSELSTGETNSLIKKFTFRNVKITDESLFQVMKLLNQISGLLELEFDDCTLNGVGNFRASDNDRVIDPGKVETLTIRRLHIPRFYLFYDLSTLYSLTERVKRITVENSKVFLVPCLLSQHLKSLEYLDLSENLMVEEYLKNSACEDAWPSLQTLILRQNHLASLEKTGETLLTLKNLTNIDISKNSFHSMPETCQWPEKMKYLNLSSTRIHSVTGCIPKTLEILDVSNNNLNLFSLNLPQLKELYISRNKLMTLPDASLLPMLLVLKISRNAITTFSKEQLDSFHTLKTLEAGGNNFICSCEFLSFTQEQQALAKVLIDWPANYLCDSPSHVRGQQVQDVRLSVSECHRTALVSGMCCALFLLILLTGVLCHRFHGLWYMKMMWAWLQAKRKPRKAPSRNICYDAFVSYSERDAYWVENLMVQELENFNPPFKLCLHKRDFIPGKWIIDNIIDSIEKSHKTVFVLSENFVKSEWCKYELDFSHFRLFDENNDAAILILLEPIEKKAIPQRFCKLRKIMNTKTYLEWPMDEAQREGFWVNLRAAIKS
MEASURED_QUANTITY: Emax (%)
Value expressed in %; do not type the unit.

Worked examples follow.
| CHEM_SMILES | UNIT_SPEC | Emax |
| --- | --- | --- |
| CC(C)(C)OC(=O)c1ccc(C(=O)OCCCCCCCCCCCCNC(=O)[C@@H]2CN(C(=O)c3ccc(C(=O)N4C[C@@H](C(=O)N[C@H]5C[C@@H]5c5ccccc5)[C@H](C(=O)N[C@H]5C[C@@H]5c5ccccc5)C4)cc3)C[C@H]2C(=O)N[C@H]2C[C@@H]2c2ccccc2)cc1 | % | 90 |
| CC[C@H](C)[C@H](NC(=O)OC(C)(C)C)C(=O)OCCCCCCCCCCCCNC(=O)[C@@H]1CN(C(=O)c2ccc(C(=O)N3C[C@@H](C(=O)N[C@H]4C[C@@H]4c4ccccc4)[C@H](C(=O)N[C@H]4C[C@@H]4c4ccccc4)C3)cc2)C[C@H]1C(=O)N[C@H]1C[C@@H]1c1ccccc1 | % | 100 |
| CC(C)(C)OC(=O)NCCOCCCCCCCCCCCCNC(=O)[C@@H]1CN(C(=O)c2ccc(C(=O)N3C[C@@H](C(=O)N[C@H]4C[C@@H]4c4ccccc4)[C@H](C(=O)N[C@H]4C[C@@H]4c4ccccc4)C3)cc2)C[C@H]1C(=O)N[C@H]1C[C@@H]1c1ccccc1 | % | 100 |
| COC(=O)CCCCCCCCCNC(=O)[C@@H]1CN(C(=O)c2ccc(C(=O)N3C[C@@H](C(=O)N[C@H]4C[C@@H]4c4ccccc4)[C@H](C(=O)N[C@H]4C[C@@H]4c4ccccc4)C3)cc2)C[C@H]1C(=O)N[C@H]1C[C@@H]1c1ccccc1 | % | 100 |

Prompt: Look up Emax: O=C(NCCCCCCCCc1ccc(O)cc1)[C@@H]1CN(C(=O)c2ccc(C(=O)N3C[C@@H](C(=O)N[C@H]4C[C@@H]4c4ccccc4)[C@H](C(=O)N[C@H]4C[C@@H]4c4ccccc4)C3)cc2)C[C@H]1C(=O)N[C@H]1C[C@@H]1c1ccccc1
Response: 90

Prompt: Look up Emax: COC(=O)CNC(=O)OCCCCCCCCCCCCNC(=O)[C@@H]1CN(C(=O)c2ccc(C(=O)N3C[C@@H](C(=O)N[C@H]4C[C@@H]4c4ccccc4)[C@H](C(=O)N[C@H]4C[C@@H]4c4ccccc4)C3)cc2)C[C@H]1C(=O)N[C@H]1C[C@@H]1c1ccccc1
Response: 90

Prompt: Look up Emax: O=C(NCCCCCCCCCCCCOCc1ccc([N+](=O)[O-])cc1)[C@@H]1CN(C(=O)c2ccc(C(=O)N3C[C@@H](C(=O)N[C@H]4C[C@@H]4c4ccccc4)[C@H](C(=O)N[C@H]4C[C@@H]4c4ccccc4)C3)cc2)C[C@H]1C(=O)N[C@H]1C[C@@H]1c1ccccc1
Response: 110

Prompt: Look up Emax: Nc1ccc(COCCCCCCCCCCCCNC(=O)[C@@H]2CN(C(=O)c3ccc(C(=O)N4C[C@@H](C(=O)N[C@H]5C[C@@H]5c5ccccc5)[C@H](C(=O)N[C@H]5C[C@@H]5c5ccccc5)C4)cc3)C[C@H]2C(=O)N[C@H]2C[C@@H]2c2ccccc2)cc1
Response: 90

Prompt: Look up Emax: Cc1ccc(S(=O)(=O)n2cnc(C[C@H](NC(=O)OC(C)(C)C)C(=O)OCCCCCCCCCCCCNC(=O)[C@@H]3CN(C(=O)c4ccc(C(=O)N5C[C@@H](C(=O)N[C@H]6C[C@@H]6c6ccccc6)[C@H](C(=O)N[C@H]6C[C@@H]6c6ccccc6)C5)cc4)C[C@H]3C(=O)N[C@H]3C[C@@H]3c3ccccc3)c2)cc1
Response: 90

The reported numbers originate from patent US20250367166A1.
